Reference for the values: PubChem BioAssay (NCI)

Tested on: MDA-MB-468 breast
assay.summary: NCI-60 one-dose screen, 48 h
recorded.conditions: 10 µM unless noted
About 83,000 compounds went through this panel and 20% of them were active in at least one assay; those are over-represented in the sample as a whole. Active and inactive are the calls of the source. The calls were made as follows: active = growth percent below 10; inactive = the rest.
Outcomes: Yes (active), No (inactive)

{"molecule": "c1ccc(Nc2nnc(-c3cc(-c4cccnc4)n(-c4ccccc4)n3)s2)cc1", "qualitative.label": "No"}
{"molecule": "Cc1ccc2c(N/N=C\\c3ccco3)cc(C)nc2n1", "qualitative.label": "No"}
{"molecule": "OC(c1cccc(-n2ccc(C(F)(F)F)n2)c1)c1cnccc1NC1CCCCCC1 (stereo not given)", "qualitative.label": "Yes"}
{"molecule": "CCc1ccc(SC2c3ccc(N(CC)CC)cc3Oc3nc(N)c(C#N)c(N)c32)cc1 (stereo not given)", "qualitative.label": "Yes"}
{"molecule": "CC1=CC2OC34COC3CC(OC(=O)C(F)(F)F)C4(C)C2(C)CC1 (stereo not given)", "qualitative.label": "No"}
{"molecule": "COc1ccc2[nH]cc(-c3nn4cc(-c5ccncc5)nc4s3)c2c1", "qualitative.label": "No"}
{"molecule": "CN(C)CC(=O)Nc1nc(-c2cccc(NS(=O)(=O)c3cccc4c(N(C)C)cccc34)c2)cs1", "qualitative.label": "No"}
{"molecule": "COc1cc2[nH]c(C(=O)c3cc(OC)c(OC)c(OC)c3)c(N)c2cc1C#CCO", "qualitative.label": "No"}
{"molecule": "C[C@H]1Oc2cc(cnc2N)-c2c(nn(C)c2C#N)CN(C)C(=O)c2ccc(F)cc21", "qualitative.label": "No"}
{"molecule": "CCOCCNc1ccc(S(=O)(=O)c2ccc(N)cc2)cc1N", "qualitative.label": "No"}
